compounds and their reported Activity
- Test system: K562
- protocol: Cell cycle arrest in human K562 cells assessed as gated cell levels at subG1 phase at antiproliferative IC50 after 72 hrs by propidium iodide staining based flow cytometry (reference value: 0.44 to 0.55%)
- Format: functional
Just the number please, in %, no unit attached.

INSERT INTO results (structure, unit_spec, result) VALUES
  ('O=C1C[C@H]2O[C@H]([C@@H](O)c3ccccc3)[C@H](O)[C@H]2O1', '%', 0.24);

Quick one: Activity for `O=C1C[C@H]2O[C@H]([C@@H](Br)c3ccccc3)[C@H](O)[C@H]2O1` ?
0.75

Input `O=C1C[C@H]2O[C@H]([C@H](I)c3ccccc3)[C@H](O)[C@H]2O1`
1.77

Input `[N-]=[N+]=N[C@@H](c1ccccc1)[C@H]1O[C@@H]2CC(=O)O[C@@H]2[C@H]1O`
1.2
